Numbers sourced from ChEMBL document CHEMBL4303121.

protocol.details: Assessment of cytotoxicity in Huh-7 cells, assessed as % inhibition of cell viability by Celltiter-Glo assay after 48 hrs
Format: toxicity, cell-based
test.conditions: human, conc 5 uM, read-out: Inhibition
measurement.label: cytotoxicity at 48 h, 5 µM (%)
Expressed in %, but write only the number.

So what does the record say about cytotoxicity at 48 h, 5 µM for CN(C)CCOc1ccc(/C(=C(/CCCl)c2ccccc2)c2ccccc2)cc1 ?
10

So what does the record say about cytotoxicity at 48 h, 5 µM for CCCCc1oc2ccccc2c1C(=O)c1cc(I)c(OCCN(CC)CC)c(I)c1 ?
2

So what does the record say about cytotoxicity at 48 h, 5 µM for CCN(CC)CCOc1ccc(C(=C(Cl)c2ccccc2)c2ccccc2)cc1 ?
12

So what does the record say about cytotoxicity at 48 h, 5 µM for CCN(CC)CCCC(C)Nc1ccnc2cc(Cl)ccc12 (stereo unspecified) ?
3

So what does the record say about cytotoxicity at 48 h, 5 µM for CCN(CC)Cc1cc(Nc2ccnc3cc(Cl)ccc23)ccc1O ?
-5

So what does the record say about cytotoxicity at 48 h, 5 µM for CCOC(=O)c1c(CSc2ccccc2)n(C)c2cc(Br)c(O)c(CN(C)C)c12 ?
10

====

protocol.details: Assessment of cytotoxicity in Huh-7 cells, assessed as % inhibition of cell viability by Celltiter-Glo assay after 48 hrs
Type: toxicity, cell-based
test.conditions: human, conc 1 uM, read-out: Inhibition
# Lookup of reported cytotoxicity at 48 h, 1 µM keyed by entry
Expressed in %, but write only the number.

Example entries begin here.
INSERT INTO results (compound, data_value) VALUES
  ('CCN(CC)CCCC(C)Nc1ccnc2cc(Cl)ccc12 (stereo unspecified)', 2),
  ('CCCCc1oc2ccccc2c1C(=O)c1cc(I)c(OCCN(CC)CC)c(I)c1', 1),
  ('CCOC(=O)c1c(CSc2ccccc2)n(C)c2cc(Br)c(O)c(CN(C)C)c12', 1),
  ('CN(C)CCOc1ccc(/C(=C(/CCCl)c2ccccc2)c2ccccc2)cc1', 1),
  ('CCN(CC)Cc1cc(Nc2ccnc3cc(Cl)ccc23)ccc1O', 1);

// switching to the query compound
So what does the record say about cytotoxicity at 48 h, 1 µM for CCN(CC)CCOc1ccc(C(=C(Cl)c2ccccc2)c2ccccc2)cc1 ?
2
